Item-by-item account of IC50
measurement target: Histone deacetylase
test parameters: hela

Answered examples (5):
compound: CC(C)c1cc(C(=O)N(C)c2ccc(NC(=O)CCCCCCC(=O)NO)cc2)c(O)cc1O
IC50: 195 nM

compound: C=CCNC1=C2C[C@@H](C)C[C@H](OC)[C@H](O)[C@@H](C)/C=C(\C)[C@H](OC(N)=O)[C@@H](OC)/C=C\C=C(/C)C(=O)NC(=CC1=O)C2=O (stereo in doubt) [TANESPIMYCIN]
IC50: > 1000 nM

compound: CC(C)c1cc(C(=O)Nc2ccccc2NC(=O)CCCCCCC(=O)NO)c(O)cc1O
IC50: > 1000 nM

compound: CC(C)c1cc(C(=O)N(C)c2ccc(NC(=O)CCCCCCCCC(=O)NO)cc2)c(O)cc1O
IC50: 672 nM

compound: CC(C)c1cc(C(=O)N(c2ccc(NC(=O)CCCCCCC(=O)NO)cc2)C(C)C)c(O)cc1O
IC50: > 1000 nM

Incoming: Quick one: IC50 for CC(C)c1cc(C(=O)N(C)c2cccc(NC(=O)CCCCCCC(=O)NO)c2)c(O)cc1O ?
Outgoing: 211 nM

Incoming: # query: IC50 of entry CC(C)c1cc(C(=O)N(C)c2ccc(NC(=O)CCCCCCCC(=O)NO)cc2)c(O)cc1O
Outgoing: 361 nM

----------
measurement target: Histone deacetylase 1 (Homo sapiens, UniProt Q13547)
Sequence (Q13547 whole entry): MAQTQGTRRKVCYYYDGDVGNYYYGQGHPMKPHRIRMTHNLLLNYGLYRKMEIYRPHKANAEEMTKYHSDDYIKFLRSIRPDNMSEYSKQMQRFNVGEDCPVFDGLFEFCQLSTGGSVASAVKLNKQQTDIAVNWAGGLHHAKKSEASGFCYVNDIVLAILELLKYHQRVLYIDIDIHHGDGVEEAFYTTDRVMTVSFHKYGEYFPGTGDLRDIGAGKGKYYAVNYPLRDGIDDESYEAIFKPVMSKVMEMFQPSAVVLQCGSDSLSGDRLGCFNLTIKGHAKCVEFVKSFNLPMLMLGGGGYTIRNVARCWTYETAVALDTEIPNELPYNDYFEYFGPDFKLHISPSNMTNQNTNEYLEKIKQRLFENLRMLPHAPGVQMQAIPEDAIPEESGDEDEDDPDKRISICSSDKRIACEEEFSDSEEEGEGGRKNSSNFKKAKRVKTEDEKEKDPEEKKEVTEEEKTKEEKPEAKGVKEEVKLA
test name: Inhibition of HDAC1 (unknown origin)
endpoint name: IC50 (nM)
Express the result in nM but write the number alone.

smiles text: O=C(CCCCC[C@@H](NC(=O)c1ccccc1)C(=O)Nc1ccc2ncccc2c1)NO
IC50 [nM]: 3.5

API: the following record is the query input.
Incoming: I have this molecule here, O=C(CCCCC[C@@H](NC(=O)c1ccccc1)C(=O)Nc1ccccc1)NO , and I need its recorded IC50.
Outgoing: 12.1

----------
measurement target: Histone deacetylase 4 (Homo sapiens, UniProt P56524)
Sequence (P56524 whole entry): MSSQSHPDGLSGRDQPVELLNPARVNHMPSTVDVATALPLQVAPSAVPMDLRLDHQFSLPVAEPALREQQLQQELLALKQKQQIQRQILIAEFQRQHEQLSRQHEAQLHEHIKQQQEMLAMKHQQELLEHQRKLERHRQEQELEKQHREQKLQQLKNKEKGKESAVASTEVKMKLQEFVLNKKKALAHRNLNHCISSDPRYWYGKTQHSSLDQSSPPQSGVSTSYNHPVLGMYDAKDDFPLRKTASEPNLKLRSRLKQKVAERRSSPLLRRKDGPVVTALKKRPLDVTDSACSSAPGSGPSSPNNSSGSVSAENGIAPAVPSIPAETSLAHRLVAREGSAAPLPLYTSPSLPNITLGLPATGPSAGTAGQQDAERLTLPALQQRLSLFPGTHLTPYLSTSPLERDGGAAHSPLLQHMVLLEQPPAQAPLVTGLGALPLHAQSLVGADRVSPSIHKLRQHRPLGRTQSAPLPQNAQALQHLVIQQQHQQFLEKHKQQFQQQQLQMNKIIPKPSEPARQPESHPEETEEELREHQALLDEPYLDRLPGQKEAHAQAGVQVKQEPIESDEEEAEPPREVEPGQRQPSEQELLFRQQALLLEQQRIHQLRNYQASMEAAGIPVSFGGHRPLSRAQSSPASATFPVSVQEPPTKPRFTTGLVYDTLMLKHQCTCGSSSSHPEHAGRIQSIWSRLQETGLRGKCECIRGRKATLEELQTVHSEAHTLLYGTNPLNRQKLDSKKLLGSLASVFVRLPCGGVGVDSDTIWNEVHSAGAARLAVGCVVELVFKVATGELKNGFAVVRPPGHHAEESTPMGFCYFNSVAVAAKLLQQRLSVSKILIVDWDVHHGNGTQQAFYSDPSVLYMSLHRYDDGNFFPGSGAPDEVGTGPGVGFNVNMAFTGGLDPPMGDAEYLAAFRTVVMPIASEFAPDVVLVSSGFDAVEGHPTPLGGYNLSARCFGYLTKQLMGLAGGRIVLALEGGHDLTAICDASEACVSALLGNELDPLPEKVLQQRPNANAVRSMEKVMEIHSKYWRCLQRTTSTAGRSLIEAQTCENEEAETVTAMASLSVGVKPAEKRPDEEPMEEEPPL
test name: Inhibition of recombinant N-terminal GST-tagged and C-terminal His-tagged human HDAC4 expressed in baculovirus infected insect cells using RHK-K(Ac)-AMC as substrate after 60 mins by fluorimetry analysis
pIC50: −log10 of the molar value.
endpoint name: pIC50

Incoming: Hello, I am looking for reported pIC50 with Histone deacetylase 4 (Homo sapiens, UniProt P56524) for CC(C)c1cc(C(=O)N(C)c2ccc(NC(=O)CCCCCCCC(=O)NO)cc2)c(O)cc1O . Could you help?
Outgoing: < 5.00

Incoming: Form field: pIC50 recorded for CC(C)c1cc(C(=O)N(C)c2ccc(NC(=O)CCCCCCC(=O)NO)cc2)c(O)cc1O with Histone deacetylase 4 (Homo sapiens, UniProt P56524) (enter value)
Outgoing: < 5.00

----------
measurement target: Histone deacetylase 8 (Homo sapiens, UniProt Q9BY41)
Sequence (Q9BY41 whole entry, the tested form may be a part): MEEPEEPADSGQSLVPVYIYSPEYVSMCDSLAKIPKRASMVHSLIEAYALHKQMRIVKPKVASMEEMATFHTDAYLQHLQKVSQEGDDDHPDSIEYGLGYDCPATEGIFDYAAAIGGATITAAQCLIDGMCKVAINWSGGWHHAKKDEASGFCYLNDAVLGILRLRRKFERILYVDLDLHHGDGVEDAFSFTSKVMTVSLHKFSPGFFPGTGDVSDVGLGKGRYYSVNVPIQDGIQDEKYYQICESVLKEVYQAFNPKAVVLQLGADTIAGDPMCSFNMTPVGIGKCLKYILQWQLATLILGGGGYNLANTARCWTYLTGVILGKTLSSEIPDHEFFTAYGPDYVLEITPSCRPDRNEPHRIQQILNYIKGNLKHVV
test name: Inhibition of recombinant C-terminal His-fusion tagged and N-terminal Streptavidin2-tagged human HDAC8 (1 to 377 residues) expressed in insect cells using RHK-K(Ac)-AMC as substrate after 60 mins by fluorescence assay
endpoint name: IC50 (nM)
Quick note: give the figure in nM, leave out the unit.

smiles text: CC(C)c1cc(C(=O)N(C)c2ccc(NC(=O)CCCCCCCC(=O)NO)cc2)c(O)cc1O
measurement target: Histone deacetylase 8 (Homo sapiens, UniProt Q9BY41)
value: 3410

Incoming: Suppose we examine the compound CC(C)c1cc(C(=O)N(C)c2ccc(NC(=O)CCCCCCC(=O)NO)cc2)c(O)cc1O ; what IC50 value has been reported?
Outgoing: 422
